Just for reference, the supplement of paper PMC12855868 is where these values come from.

Listed variants paired with reported scaled log2 fold change
B1: library; numbered along this chain (parent)
chain: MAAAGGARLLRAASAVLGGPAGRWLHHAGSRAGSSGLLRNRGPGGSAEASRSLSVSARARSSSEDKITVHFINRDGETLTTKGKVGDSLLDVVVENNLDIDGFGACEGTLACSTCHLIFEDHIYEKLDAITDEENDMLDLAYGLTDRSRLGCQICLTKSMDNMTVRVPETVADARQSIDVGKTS

variants of: B1; assay: scaled log2 fold change in cell abundance, elesclomol vs control (0 = silent mean, 1 = nonsense mean) (scaled log2 ratio); higher = higher viability under elesclomol (loss of FDX1 cuproptosis function); conditions: with HEK293T FDX1 KO; elesclomol 40 nM; glucose 10 mM; 11 days;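 also: variant abundance is its share of total variant reads in each endpoint sample, from next-generation sequencing of the integrated ORF PCR-amplified out of genomic DNA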

MUTATION DESCRIPTOR	scaled log2 fold change
K84D	0.0439
R60Q	-0.217
C152L	1.41
K84Q	-0.794
I178R	-0.46
K182E	-1.19
G151I	0.797
I118P	0.991
E125G	-0.096
R58F	-0.229
R41I	0.109
D87W	-0.509
V55S	-0.104
L144C	-0.265
V92Y	-0.087
N73Y	-0.741
R149V	0.529
L138A	-0.22
T131V	0.525
A15H	-0.215
P43D	-0.259
V93H	-0.875
G19V	1.01
Y124F	-0.225
T80K	-0.131
S46T	0.182
V167M	-0.0856
D91K	-0.0722
G45Q	0.513
S52K	-1.31
F71E	1.5
L138M	0.00846
S52Y	0.0679
N73G	0.401
L117R	0.855
T164G	-0.293
G33A	0.0796
A141E	-0.297
I123Y	-0.336
G22Y	0.208
A129I	-0.508
V92M	0.391
N162F	-0.244
C155K	6.73e-05
N73H	-0.159
T157W	-0.456
